Molecular target: T1, CAPRIN-1 protein expressed on the membrane surface of human cancer cells (human, UniProt Q14444 2-709)
T1 sequence (looked up): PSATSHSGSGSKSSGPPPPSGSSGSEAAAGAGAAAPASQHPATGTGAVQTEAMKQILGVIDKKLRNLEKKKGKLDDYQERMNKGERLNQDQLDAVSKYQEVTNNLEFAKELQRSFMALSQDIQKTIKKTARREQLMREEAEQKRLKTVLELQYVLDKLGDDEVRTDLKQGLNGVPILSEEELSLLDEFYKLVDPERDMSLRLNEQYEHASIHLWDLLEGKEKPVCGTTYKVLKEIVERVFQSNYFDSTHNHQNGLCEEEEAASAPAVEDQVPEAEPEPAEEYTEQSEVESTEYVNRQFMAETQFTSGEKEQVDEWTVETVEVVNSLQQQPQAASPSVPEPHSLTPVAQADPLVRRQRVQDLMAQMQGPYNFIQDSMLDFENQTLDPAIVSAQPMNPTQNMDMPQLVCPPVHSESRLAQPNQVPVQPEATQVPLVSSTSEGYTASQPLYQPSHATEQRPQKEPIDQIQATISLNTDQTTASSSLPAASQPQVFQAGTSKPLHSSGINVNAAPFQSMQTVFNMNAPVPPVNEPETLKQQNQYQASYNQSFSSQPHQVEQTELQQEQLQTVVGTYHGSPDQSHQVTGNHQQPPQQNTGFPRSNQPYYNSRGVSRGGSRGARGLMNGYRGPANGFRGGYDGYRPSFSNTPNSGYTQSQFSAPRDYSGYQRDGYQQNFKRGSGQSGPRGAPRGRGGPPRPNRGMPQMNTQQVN
Assay: cell-based or functional assay
Some binders, each annotated with its measured ADCC cytotoxic activity (51Cr release) on 22Rv1.

# example entries with known answers
BINDER: humanized antibody #7 (antibody, V domains shown) VH: EVQLVESGGGLVQPGGSLRLSCAASGFSLSSHSLGWVRQAPGKGLEWIGDIRSGGSAYYANWAKGRFTISRDNSKNTLYLQMNSLRAEDTAVYYCTRTNGPSDLTNRLDLWGQGTLVTVSS VL: QVLTQSPSSLSASVGDRVTINCQASQSLYNNENLAWFQQKPGKVPKRLIYGASTLASGVSSRFSGSGSGTEFTLTISSLQCEDFAIYYCLGEFSCGSADCFAFGGGTKVEIK
TEST VALUE: ≥ 49%

BINDER: humanized antibody #4 (antibody, V domains shown) VH: EVQLVESGGGLVQPGGSLRLSCAASGFSLSSHSLGWVRQAPGKGLEWIGDIRSGGSAYYANWAKGRFTISRDNSKNTLYLQMNSLRAEDTAVYFCTRTNGPSDLTNRLDLWGQGTLVTVSS VL: EIVLTQSPSSLSASVGDRVTINCQASQSLYNNENLAWFQQKPGKVPKRLIYGASTLASGVSSRFSGSGSGTEFTLTISNLQPEDFATYYCLGEFSCGSADCFAFGGGTKVEIK
TEST VALUE: ≥ 45%

ADCC cytotoxic activity (51Cr release) on 22Rv1 measured on humanized antibody #9 (antibody, V domains shown) VH: EQSLVESGGGLVQPGGSLRLSCAASGFSLSSHSLGWVRQAPGKGLEWIGDIRSGGSAYYANWAKGRFTISRDNSKNTLYLQMNSLRAEDTAVYYCTRTNGPSDLTNRLDLWGQGTLVTVSS VL: DIVLTQSPSSLSASVGDRVTINCQASQSLYNNENLAWFQQKPGKVPKRLIYGASTLASGVSSRFSGSGSGTEFTLTISSLQCEDFAIYYCLGEFSCGSADCFAFGGGTKVEIK = ≥ 38%
